Biological target: UniProtKB Q9JHE3
Sequence (Q9JHE3 whole entry): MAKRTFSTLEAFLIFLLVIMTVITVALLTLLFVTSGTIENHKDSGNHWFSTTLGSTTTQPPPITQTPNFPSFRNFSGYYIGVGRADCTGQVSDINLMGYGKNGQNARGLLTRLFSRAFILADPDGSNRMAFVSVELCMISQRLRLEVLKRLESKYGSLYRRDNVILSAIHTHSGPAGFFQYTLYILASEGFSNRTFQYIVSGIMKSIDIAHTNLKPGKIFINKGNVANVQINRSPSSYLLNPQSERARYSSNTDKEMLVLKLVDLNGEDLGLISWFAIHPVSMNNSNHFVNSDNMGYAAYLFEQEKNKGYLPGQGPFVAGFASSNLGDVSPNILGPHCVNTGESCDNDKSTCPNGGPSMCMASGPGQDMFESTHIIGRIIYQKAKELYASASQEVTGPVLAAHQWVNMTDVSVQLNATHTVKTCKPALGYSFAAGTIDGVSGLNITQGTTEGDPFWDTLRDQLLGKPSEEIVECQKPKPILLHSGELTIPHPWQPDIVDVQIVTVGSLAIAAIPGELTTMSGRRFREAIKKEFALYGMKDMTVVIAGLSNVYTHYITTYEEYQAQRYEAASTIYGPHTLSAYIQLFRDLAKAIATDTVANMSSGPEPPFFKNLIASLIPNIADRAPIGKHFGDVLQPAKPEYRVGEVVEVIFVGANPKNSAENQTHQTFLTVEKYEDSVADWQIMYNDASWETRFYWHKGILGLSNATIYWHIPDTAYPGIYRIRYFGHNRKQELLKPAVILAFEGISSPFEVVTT
Measured parameter: IC50 (µM)
Kindly answer with a numeric value in µM, unit omitted.

The reported IC50 value, UniProtKB Q9JHE3, for "O=c1nc(Nc2cccc(Cl)c2)oc2cc(Cl)oc(=O)c12" reads 30.2
